System: MS2 coat protein
Test Description: apparent KD of MS2 coat protein; designed switch direction (-1 OFF switch, 1 ON switch): 1; higher = weaker reporter binding
Reported Conditions: input ligand: none
Listing of entries alongside the reported apparent KD of MS2 coat protein.
Field: numeric (nM). Do not append units.

Look over these answered cases.
{"columns": ["Seq", "apparent KD of MS2 coat protein [nM]"],
 "data": [
  ["GCUCGGAUGAUGGCCCACAUGAGGAUCACCCAUGUGCGUGGGCAGGAUAUCUAGAUUAAGGAUGUAGAGAAGGGUCUACCGAGC [SameState NG3 #32] (Eterna round: R96, puzzle: Same State NG 3)", 128],
  ["GCCGUAAUAACAUGAGGAUCACCCAUGUGCGCGAGAGUGGAUGAGGAUAUCGAUGGGUUUCCCGUCGAGAAGGCGUGGGUCGGC [JL SSNG3 3.98] (Eterna round: R96, puzzle: Same State NG 3)", 38.5]
]}

API: the following record is the query input.
Ask: Consider the sequence AUUACUAACAUAGGAUAUCAUGCGAAAAUUGCGUGAGAAGGGUGGACACUGUCUUUCUCGGAGCACAUGAGGAUCACCCAUGUG [SameState NG1 #69] (Eterna round: R96, puzzle: Same State NG 1) and give its measured apparent KD of MS2 coat protein.
Reply: 65

====

Tested on: MS2 coat protein
Test Description: apparent KD of MS2 coat protein; designed switch direction (-1 OFF switch, 1 ON switch): -1; higher = weaker reporter binding
Reported Conditions: Eterna round: R95; input ligand: microRNA oligo, concentration not stated
Below, each entry is listed alongside its reported apparent KD of MS2 coat protein.
Answer format: numeric, nM implied, no suffix.

{"columns": ["Seq", "Scale Unit", "apparent KD of MS2 coat protein"],
 "data": [
  ["AGAUAGUUAGGAUAUACAUGAGGAUCACCCAUGUAGAAAAGUGGCUAAUGAGACUCCGGUAGAAGGAACAAAAU [Isanqurama] (puzzle: Exclusion 3)", "nM", 20]
]}

Then this sequence:
Ask: Give its apparent KD of MS2 coat protein value. Item: GAUCAACAUGAGGAUCACCCAUGUGAGGAUAUGAUACUAUGUACUUCGGUACAUAGUAUCAGAAGGCAUGUGAA [Ex1-3: 77] (puzzle: Exclusion 1)
Reply: 80.1

====

Tested on: MS2 coat protein
Test Description: apparent KD of MS2 coat protein; designed switch direction (-1 OFF switch, 1 ON switch): 1; higher = weaker reporter binding
Reported Conditions: input ligand: microRNA oligo, concentration not stated
Reported apparent KD of MS2 coat protein values follow for various sequences
Field: numeric (nM). Do not append units.

{"columns": ["Seq", "apparent KD of MS2 coat protein / nM"],
 "data": [
  ["CAAGAAAACGCAGGAUAUACCCGAACAACCCGGGUAGAAGGGUGACACAUGAGGAUCACCCAUGUACAUGGCAUUAGCCAUGGA [Esusxebeis] (Eterna round: R96, puzzle: Same State NG 1)", 262]
]}

We next turn to a different sequence, shown below.
Ask: Could you share which apparent KD of MS2 coat protein value was measured for GUAAUACAUGAGGAUCACCCAUGUCAAUGUAGUCGAGGAUAUGGGUAGCUAUGAGGCUUACUAGAAGGCGACGAGC [Same State 1 - Mod of Vinnie Teenbexe v.5] (Eterna round: R96, puzzle: Same State 1) ?
Reply: 208
